Reported zone of inhibition at 1000 µg/disc values follow for various compounds
Tested on: Bacillus subtilis
ASSAY COMMENT: Antimicrobial activity against Bacillus subtilis at 1000 ug/disc after 24 hrs by disc diffusion method
Format: functional
RUN PARAMETERS: read-out: DIZ

See these solved cases before continuing.
| COMPOUND | zone of inhibition at 1000 µg/disc |
| --- | --- |
| CC(C)CC(=O)O[C@@H](c1ccccc1)c1cc(O)cc(=O)[nH]1 | 23 mm |
| CC(C)CC(=O)O[C@H](c1ccccc1)c1cc(O)cc(=O)[nH]1 | 19 mm |
| CC(C)CC(=O)O[C@H](c1ccccc1)c1cc(O)c(C(=O)O)c(=O)[nH]1 | 15 mm |
| CC(C)CC(=O)O[C@@H](c1ccccc1)c1cc(O)c(C(=O)O)c(=O)[nH]1 | 12 mm |

Tell me the measured zone of inhibition at 1000 µg/disc of CC(C)CC(=O)OC(c1ccccc1)c1cc(O)c(C(=O)O)c(=O)[nH]1 (racemic) , please.
13 mm

----------
Tested on: Staphylococcus epidermidis
ASSAY COMMENT: Antimicrobial activity against Staphylococcus epidermidis at 500 ug/disc after 24 hrs by disc diffusion method
Format: functional
RUN PARAMETERS: read-out: DIZ
Reported zone of inhibition at 500 µg/disc values follow for various compounds
Write the number in mm without appending the unit.

See these solved cases before continuing.
| COMPOUND | ASSAYED SYSTEM | RESULT NUMBER |
| --- | --- | --- |
| CC(C)CC(=O)OC(c1ccccc1)c1cc(O)c(C(=O)O)c(=O)[nH]1 (racemic) | Staphylococcus epidermidis | 8 |
| CC(C)CC(=O)O[C@@H](c1ccccc1)c1cc(O)c(C(=O)O)c(=O)[nH]1 | Staphylococcus epidermidis | 11 |
| CC(C)CC(=O)O[C@H](c1ccccc1)c1cc(O)cc(=O)[nH]1 | Staphylococcus epidermidis | 8 |

Now consider a different compound.
Tell me the measured zone of inhibition at 500 µg/disc of CC(C)CC(=O)O[C@H](c1ccccc1)c1cc(O)c(C(=O)O)c(=O)[nH]1 , please.
12

----------
Reported Activity values follow for various molecules
System: A549
ASSAY COMMENT: Cytotoxicity against human A549 cells assessed as cell death at 10 ug after 48 hrs by MTT assay
Assay type: functional
Write the number in % without appending the unit.

See these solved cases before continuing.
| MOLECULE | MEASURE UNIT | RESULT NUMBER |
| --- | --- | --- |
| COc1cc([C@@H]2c3cc4c(cc3[C@@H](O[C@@H]3O[C@@H]5CO[C@@H](C)O[C@H]5[C@H](O)[C@H]3O)[C@H]3COC(=O)[C@H]23)OCO4)cc(OC)c1O [ETOPOSIDE] | % | 55.33 |
| CC(C)CC(=O)OC(c1ccccc1)c1cc(O)c(C(=O)O)c(=O)[nH]1 (racemic) | % | 71.07 |
| CC(C)CC(=O)O[C@@H](c1ccccc1)c1cc(O)c(C(=O)O)c(=O)[nH]1 | % | 77.23 |
| CC(C)CC(=O)O[C@H](c1ccccc1)c1cc(O)c(C(=O)O)c(=O)[nH]1 | % | 77.84 |
| CC(C)CC(=O)O[C@H](c1ccccc1)c1cc(O)cc(=O)[nH]1 | % | 50.39 |
| CC(C)CC(=O)O[C@@H](c1ccccc1)c1cc(O)cc(=O)[nH]1 | % | 47.62 |

Now consider a different molecule.
Tell me the measured Activity of CC(C)CC(=O)OC(c1ccccc1)c1cc(O)cc(=O)[nH]1 (racemic) , please.
50.21
